# system-under-test: human ether-à-go-go-related gene (hERG) potassium channel (human);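 note: peak tail current of the secondary pulse compared with the same well before compound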
# test-details: primary screen, population patch clamp on CHO cells stably expressing hERG; higher = less effect of the substance
# Procedure: Briefly, Chinese hamster ovary (CHO) cells stably expressing the hERG channel were dislodged from tissue culture flasks and dispensed into PPC plates. […] During the recording, background leak currents were estimated by a 100 ms step to -80 mV from an initial holding potential of -70 mV and subtracted from the subsequent current measurement. The campaign was conducted in two phases using slight differences in recording protocol. […]
In all, about 310,000 compounds went through this assay and about 14,000 (4.5%) showed an effect of 50% or more. Effects have a minus sign here. The sample holds strong results, similar compounds and a random draw of the others, so the mix is not that of the screen.
observed-property: hERG current change (%, negative = inhibition) at 10uM (%)
Numbers only here, please. The scale is %.

Check out these entries, answers already filled in.
{"columns": ["compound-structure-string", "readout-number"],
 "data": [
  ["NC(=O)CSc1nc2ccccc2c(=O)n1CCc1ccccc1", 8.93],
  ["Cc1cccc(C)c1OCc1cc(C(=O)N2CCN(C3CCCC3)CC2)no1", -67.9]
]}

The recorded hERG current change (%, negative = inhibition) at 10uM for O=C(c1cc(COc2c(F)cccc2F)on1)N1CCN(C2CCCCC2)CC1 is -52

molecule COc1ccc(CCn2c(SCCN3CCCCC3)nc3ccccc3c2=O)cc1OC , hERG current change (%, negative = inhibition) at 10uM observed: -53.3

// hERG current change (%, negative = inhibition) at 10uM lookup, molecule = CC(C)Cn1cnc2c1c(=O)n(C)c(=O)n2C , result: 27.8

Form: molecule = CC(=O)N1CCCN(C(=O)c2cc(COc3c(F)cccc3F)on2)CC1 ; hERG current change (%, negative = inhibition) at 10uM = 6.58

So for COCCn1c(SCCOc2ccccc2)nc2ccccc2c1=O , the logged hERG current change (%, negative = inhibition) at 10uM turned out to be -6.1

Recorded result, CN1CC2(C(=O)c3ccccc3)CN(C)CC(C(=O)c3ccccc3)(C1)C2 , hERG current change (%, negative = inhibition) at 10uM: -53

Memo: O=c1c2ccccc2nc(SCCN2CCCCC2)n1CCc1ccccc1 , reported hERG current change (%, negative = inhibition) at 10uM: -71.7

// hERG current change (%, negative = inhibition) at 10uM value for O=C(c1cc(COc2c(F)cccc2F)on1)N1CCCCCC1 : 4.46

----------
# system-under-test: human ether-à-go-go-related gene (hERG) potassium channel (human, UniProt Q12809);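 note: peak tail current of the secondary pulse compared with the same well before compound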
# Sequence (Q12809 whole entry, looked up): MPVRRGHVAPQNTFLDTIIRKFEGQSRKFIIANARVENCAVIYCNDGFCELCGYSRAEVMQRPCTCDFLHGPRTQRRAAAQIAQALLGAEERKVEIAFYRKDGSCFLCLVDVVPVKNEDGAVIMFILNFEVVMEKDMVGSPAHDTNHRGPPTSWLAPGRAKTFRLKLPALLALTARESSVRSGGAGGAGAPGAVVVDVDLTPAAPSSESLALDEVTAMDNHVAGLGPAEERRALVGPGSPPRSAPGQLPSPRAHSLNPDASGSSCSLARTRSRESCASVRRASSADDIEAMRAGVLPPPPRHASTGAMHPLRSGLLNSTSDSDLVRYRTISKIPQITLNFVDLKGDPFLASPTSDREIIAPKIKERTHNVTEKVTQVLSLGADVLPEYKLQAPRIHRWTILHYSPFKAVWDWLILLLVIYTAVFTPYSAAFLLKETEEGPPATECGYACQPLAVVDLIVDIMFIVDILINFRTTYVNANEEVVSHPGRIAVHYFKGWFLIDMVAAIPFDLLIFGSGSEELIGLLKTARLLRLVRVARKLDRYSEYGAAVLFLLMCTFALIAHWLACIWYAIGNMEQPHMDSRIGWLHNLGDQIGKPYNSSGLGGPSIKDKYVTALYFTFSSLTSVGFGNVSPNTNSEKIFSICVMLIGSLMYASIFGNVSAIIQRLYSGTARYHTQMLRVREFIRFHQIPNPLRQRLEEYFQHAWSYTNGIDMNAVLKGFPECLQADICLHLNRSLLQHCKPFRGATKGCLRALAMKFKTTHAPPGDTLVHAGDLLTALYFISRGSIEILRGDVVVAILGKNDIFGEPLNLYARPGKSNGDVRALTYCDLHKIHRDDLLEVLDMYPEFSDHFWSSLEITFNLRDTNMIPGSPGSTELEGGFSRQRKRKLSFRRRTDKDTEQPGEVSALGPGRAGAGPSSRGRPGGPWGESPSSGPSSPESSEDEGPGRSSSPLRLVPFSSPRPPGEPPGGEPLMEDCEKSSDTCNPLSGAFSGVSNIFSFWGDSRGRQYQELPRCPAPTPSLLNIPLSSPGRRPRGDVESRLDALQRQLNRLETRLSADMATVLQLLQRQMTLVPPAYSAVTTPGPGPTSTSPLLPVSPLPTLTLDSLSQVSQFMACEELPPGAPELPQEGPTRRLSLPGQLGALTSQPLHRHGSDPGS
# test-details: primary screen, population patch clamp on CHO cells stably expressing hERG; higher = less effect of the substance
Among all 310,000 compounds or so, about 14,000 (4.5%) showed an effect of 50% or more. The effect is printed as a negative number. Only a selection was taken, and strong results are over-represented in it overall.
Assign Fulfilled to entries whose hERG current change (%, negative = inhibition) at 10uM meets or exceeds 10%; assign Not fulfilled to the rest.

Input line: hey, is hERG current change (%, negative = inhibition) at 10uM for this one >= 10%? FC(F)(F)c1cc(N2CCN(Cc3ccccc3)CC2)c2ccccc2n1
Output line: Fulfilled

Input line: Exam item: decide whether the reported hERG current change (%, negative = inhibition) at 10uM for CCOC(=O)c1ccc(NCc2ccncc2)cc1 is at least 10%.
Output line: Not fulfilled

Input line: Determine whether this compound has hERG current change (%, negative = inhibition) at 10uM no lower than 10%: CCCc1cc(=O)oc2cc(C)cc(OCc3nn[nH]n3)c12
Output line: Fulfilled

Input line: hey, is hERG current change (%, negative = inhibition) at 10uM for this one >= 10%? Cc1ccc(CCNC(=O)C2CCCN(C(=O)N(C)C)C2)cc1 (stereo not drawn)
Output line: Not fulfilled

Input line: Given COc1cc(NC(=O)c2c(-c3ccccc3Cl)noc2C)c2ncccc2c1 , state whether its hERG current change (%, negative = inhibition) at 10uM is at least 10%.
Output line: Fulfilled

Input line: For this compound, is measured hERG current change (%, negative = inhibition) at 10uM 10% or higher? S=c1[nH]c2ccc(Cl)cc2s1
Output line: Fulfilled

Just for reference, paper PMC4336329 is where these values come from.
